Could you please report measured normalized growth for the items listed next?
METHOD_DESCRIPTION: chemical genetic growth profiling, strain panel (AID 1159580);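 further: tested at 20 µM; growth read once vehicle control cultures reached saturation at 30 °C; 1 = growth at the plate median or of vehicle wells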
CONDITION_DETAILS: S. cerevisiae deletion strains, growth OD, locus YBR279W, strain paf1, stronger effect = lower value
The campaign covered roughly 5,500 compounds. About 2,000 (36%) were called active. Roughly 18% stayed inconclusive and do not appear here. The list shows a part of the results.
Give bare numbers.

C/C=C(\C)C(=O)O[C@H]1C[C@@H](OC(C)=O)[C@@]2(C(=O)OC)CO[C@@H]3C2[C@]12CO[C@](O)(C(=O)OC)[C@H]2[C@](C)(C12O[C@@]1(C)[C@H]1C[C@@H]2OC2OC=C[C@@]21O)[C@@H]3O (stereo partly specified)	0.992
COc1ccc([C@H]2Oc3c(I)c(OC)cc(OC)c3C[C@@H]2O)cc1OC	1.03

I need normalized growth for every entry listed below, if you could help.
1. Nc1ncn[nH]1
2. Oc1ccc2c(c1)O[C@H](c1ccc(O)c(O)c1)[C@@H](O)C2

1.02
1.02

I need normalized growth for every entry listed below, if you could help.
1. O=C(c1ccc(OCCN2CCCCC2)cc1)c1c(-c2ccc(O)cc2)sc2cc(O)ccc12
2. O=C(O)CCCc1ccccc1
3. O=C(O)CCCc1ccc(N(CCCl)CCCl)cc1
4. CNCCC(Oc1ccc(C(F)(F)F)cc1)c1ccccc1 (stereo unspecified)
5. CCN(CC)C(=O)N1CCN(C)CC1
6. NCCc1cnc[nH]1
7. OCCc1ccccc1

1. 1.02
2. 0.974
3. 0.955
4. 0.985
5. 0.981
6. 1.02
7. 0.989

###

METHOD_DESCRIPTION: chemical genetic growth profiling, strain panel (AID 1159580)
CONDITION_DETAILS: S. cerevisiae deletion strains, growth OD, locus YMR078C, strain ctf18, stronger effect = lower value
Screen size: about 5,500 compounds; about 2,000 (36%) were called active. About 18% were inconclusive and are not listed. The list shows a part of the results.
Criterion: normalized growth strictly less than 1. Met: True. Not met: False.

C=CCc1ccc(O)c(OC)c1	True
C=C[C@@](C)(O)CCC1C(=C)C[C@H](O)C2C(C)(C)CCCC12C (stereo not given in full)	False
C=C1CCC2[C@](C)(CO)[C@H](O)CC[C@@]2(C)[C@@H]1C/C=C1/C(=O)OC[C@H]1O (stereo not given in full)	False

Hi there! Is normalized growth for C=C[C@@](C)(O)CCC1C(=C)CCC2[C@@](C)(CO)CCC[C@]12C (stereo not given in full) below 1, do you know?
False

Another compound: "CCC[C@H](N[C@@H](C)C(=O)N1[C@H](C(=O)O)C[C@@H]2CCCC[C@@H]21)C(=O)OCC"
False

###

METHOD_DESCRIPTION: chemical genetic growth profiling, strain panel (AID 1159580)
CONDITION_DETAILS: S. cerevisiae deletion strains, growth OD, locus YOL012C, strain htz1
Out of some 5,500 compounds screened, about 2,000 (36%) were called active. Not shown: some 18% with an inconclusive outcome. The list shows a part of the results.
Could you please report measured normalized growth for the items listed next?

The examples below pair each entry with its known result.
COC(=O)CC1C2(C)CC34OC5(C)OC6(C7/C(=C(/O)C(C)C)C(=O)OC(c8ccoc8)C7(C)C(OC(=O)C(C)C)C(OC)C6(O5)C13C)C(OC)C4(OC)C2OC(C)=O (stereo not drawn)	0.95 (inactive)
CCC(C)C(=O)OC1CC2(C)C(c3ccoc3)OC(=O)CC23OC2(C)OC34C(OC(=O)C(C)C)C3(O)C(OC(=O)C5(C)OC5C)C5(C)CC3(O)C(C)(C5C(=O)OC)C14O2 (stereo not drawn)	1.81 (inactive)

Now for a further molecule.
Entry under review: CCC(C)C(=O)O[C@@H]1C[C@@]2(C)[C@H](c3ccoc3)OC(=O)CC23OC2(C)OC34[C@H](OC(=O)C(C)C)[C@@]3(O)[C@@H](OC(=O)C5(C)OC5C)[C@@]5(C)C[C@]3(O)[C@@](C)([C@H]5CC(=O)OC)C14O2 (stereo partly drawn) . Reported normalized growth?
0.642 (inactive)

###

Could you please report measured normalized growth for the items listed next?
METHOD_DESCRIPTION: chemical genetic growth profiling, strain panel (AID 1159580);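 further: tested at 20 µM; growth read once vehicle control cultures reached saturation at 30 °C; 1 = growth at the plate median or of vehicle wells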
CONDITION_DETAILS: S. cerevisiae deletion strains, growth OD, locus YHR079C, strain IRE1 (second series), stronger effect = lower value
In all, about 5,500 compounds went through this assay and about 2,000 (36%) were called active. Inconclusive results (about 18%) are left out. The list shows a part of the results.

The examples below pair each entry with its known result.
CC1CCc2cc(F)cc3c(=O)c(C(=O)O)cn1c23 (stereo unspecified)	0.955 (inactive)
CCn1cc(C(=O)O)c(=O)c2cc(F)c(N3CCNC(C)C3)c(F)c21 (stereo unspecified)	0.985 (inactive)
CC1(C)S[C@@H]2[C@H](NC(=O)[C@H](N)c3ccccc3)C(=O)N2[C@H]1C(=O)O	1 (inactive)
CCCCCCC(C)OC(=O)COc1cc(Cl)c(Cl)cc1Cl (stereo unspecified)	0.986 (inactive)
COc1c(N2CCNC(C)C2)c(F)cc2c(=O)c(C(=O)O)cn(C3CC3)c12 (stereo unspecified)	1 (inactive)

I need normalized growth for every entry listed below, if you could help.
1. C[n+]1c2cc(N)ccc2cc2ccc(N)cc21
2. C=CCc1ccc(OC(=O)c2ccccc2)c(OC)c1
3. CCn1cc(C(=O)O)c(=O)c2cc(F)c(N3CCNCC3)nc21
4. C[C@H]1COc2c(N3CCN(C)CC3)c(F)cc3c(=O)c(C(=O)O)cn1c23
5. C=CCc1ccc(O)c(OC)c1
6. O=C1NCC2(CCN(CCc3ccccc3)CC2)O1

1: 0.779 (active); 2: 0.988 (inactive); 3: 1.01 (inactive); 4: 1.01 (inactive); 5: 0.927 (inactive); 6: 1.01 (inactive)

###

Could you please report measured normalized growth for the items listed next?
METHOD_DESCRIPTION: chemical genetic growth profiling, strain panel (AID 1159580);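 further: tested at 20 µM; growth read once vehicle control cultures reached saturation at 30 °C; 1 = growth at the plate median or of vehicle wells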
CONDITION_DETAILS: S. cerevisiae deletion strains, growth OD, locus YPL153C, strain RAD53, stronger effect = lower value
Hit rate of the full screen: of about 5,500 compounds, about 2,000 (36%) were called active. Not shown: some 18% with an inconclusive outcome. The list shows a part of the results.
Answers are plain numbers.

COc1ccc(C(CC(=O)c2ccccc2)Sc2ccccc2N)cc1OC (stereo unspecified)	0.978
Cc1c(C(=O)Sc2ccc(F)cc2F)sc2nc(C(F)(F)F)nn12	0.102
N#C/C(=N/Nc1ccc(F)cc1)C(=O)c1ccccc1	0.757

I need normalized growth for every entry listed below, if you could help.
1. CCOC(=O)c1ccc2nc(N=CNO)sc2c1
2. N#C/C(=N/Nc1ccccc1)C(=O)c1ccccc1OC(F)(F)F
3. CC(C)(C)c1ccc(C(=N)SC(C(=O)C(F)(F)F)c2ccccc2)cc1 (stereo unspecified)
4. CCCN(CCC)C(=S)NC(=O)c1cccc([N+](=O)[O-])c1
5. Oc1c(Cl)cc(Cl)cc1C=Nc1nc(-c2ccc3ccccc3c2)cs1
6. Fc1cc(I)ccc1Nc1ccnc2cc(Cl)ccc12
7. O=C(/C=C/c1ccc2c(c1)OCO2)Nc1ccc(Br)cc1

[0.88, 0.882, 0.909, 0.925, 0.768, 0.923, 0.97]

Entry under review: "Cc1nn(C)c(C(=O)Sc2ccc(OC(F)(F)F)cc2)c1[N+](=O)[O-]" . Reported normalized growth?
1.03

###

Could you please report measured normalized growth for the items listed next?
METHOD_DESCRIPTION: chemical genetic growth profiling, strain panel (AID 1159580);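 further: tested at 20 µM; growth read once vehicle control cultures reached saturation at 30 °C; 1 = growth at the plate median or of vehicle wells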
CONDITION_DETAILS: S. cerevisiae deletion strains, growth OD, locus YLR342W, strain FKS1, stronger effect = lower value
Hit rate of the full screen: of about 5,500 compounds, about 2,000 (36%) were called active. Roughly 18% stayed inconclusive and do not appear here. Some of the results follow.

The examples below pair each entry with its known result.
C=C[C@@](C)(O)CCC1C(=C)CCC2[C@@](C)(CO)CCC[C@]12C (some centres undefined)	0.999 (inactive)
CCC(C)C(=O)O[C@@H]1C[C@@]2(C)[C@H](c3ccoc3)OC(=O)CC23OC2(C)OC34[C@H](OC(=O)C(C)C)[C@@]3(O)[C@@H](OC(=O)C5(C)OC5C)[C@@]5(C)C[C@]3(O)[C@@](C)([C@H]5CC(=O)OC)C14O2 (some centres undefined)	1.01 (inactive)
O=c1c(-c2ccc(O)cc2)coc2cc(O)ccc12	0.987 (inactive)
Cc1ccc(S(=O)(=O)NC(=O)NN2CCCCCC2)cc1	0.987 (inactive)
O=C1C(Cl)=C(Cl)C(=O)C(Cl)=C1Cl	0.935 (inactive)
C=C[C@@](C)(O)CCC1C(=C)C[C@H](OC(C)=O)C2C(C)(C)CCCC12C (some centres undefined)	1.03 (inactive)
CC[C@]1(O)CC2CN(CCc3c([nH]c4ccccc34)[C@@](C(=O)OC)(c3cc4c(cc3OC)N(C)[C@H]3[C@@](O)(C(=O)OC)[C@H](OC(C)=O)[C@]5(CC)C=CCN6CC[C@]43[C@@H]65)C2)C1 (some centres undefined)	0.977 (inactive)
CC#CC1(O)CCC2C3CCC4=CC(=O)CCC4=C3C(c3ccc(N(C)C)cc3)CC21C (centres undefined)	0.995 (inactive)
COc1ccc(-c2coc3cc(O)ccc3c2=O)c(OC)c1	1.02 (inactive)
CCC(C)C(=O)O[C@@H]1C[C@@]2(C)[C@H](c3ccoc3)OC(=O)CC23OC2(C)O[C@]14[C@]1(C)[C@@H](CC(=O)OC)C5(C)CC1(O)[C@](O)(C5OC(=O)C1(C)OC1C)[C@@H](OC(C)=O)[C@]34O2 (some centres undefined)	0.977 (inactive)

I need normalized growth for every entry listed below, if you could help.
1. c1ccc2c(c1)sc1ccccc12
2. O=C(O)c1cc2cc(F)ccc2[nH]1
3. CCCCC/C=C/CCC(=O)N[C@H]1[C@H](Oc2c3cc4cc2Oc2ccc(cc2Cl)[C@@H](O[C@@H]2O[C@H](CO)[C@@H](O)[C@H](O)[C@H]2NC(C)=O)[C@@H]2NC(=O)[C@H](NC(=O)[C@@H]4NC(=O)[C@H]4NC(=O)C(Cc5ccc(c(Cl)c5)O3)NC(=O)[C@H](N)c3ccc(O)c(c3)Oc3cc(O)cc4c3)c3ccc(O)c(c3)-c3c(OC4O[C@H](CO)[C@@H](O)[C@H](O)[C@@H]4O)cc(O)cc3[C@@H](C(=O)O)NC2=O)O[C@H](CO)[C@@H](O)[C@@H]1O (some centres undefined)

1: 0.959 (inactive); 2: 0.98 (inactive); 3: 0.988 (inactive)

Entry under review: "O=C(c1ccc(OCCN2CCCCC2)cc1)c1c(-c2ccc(O)cc2)sc2cc(O)ccc12" . Reported normalized growth?
1 (inactive)
